System: K4 kissing-loop RNA reporter
MEASUREMENT_NOTES: apparent KD of K4 kissing-loop reporter; higher = weaker reporter binding
ASSAY_CONTEXT: Eterna round: R107; input ligand: FMN 200 uM
Assign class by apparent KD of K4 kissing-loop reporter: not lower than 400 nM means label 1; lower than 400 nM means label 0.

1) CUGACUAAAUAGUCAGUGAUGUUGACUGGACGAGGACCGGUACGGCCGCCACUCGAGAGUGGUGUAAUAUAUGUCAUAUAGUCAA [Tryp A SS t3]
label 1
2) UUGAGACGUCAAGGAUAUUCCGCGGAAGGGCGAGCGACCCAAGUGUGAGUGAUGUUCAGCAAGCCGGAAGAAGGUGAAUUUCACC [theeternabot_sameState_KL_FMN_B_26]
label 1
3) UUUUAUUCGUACUUCUAGUGAUGUUAGAUUCGAGGACCGGUACGGCCGCCACUCGUUAAGGCGAUUUUAUAUUUUUUAUUCUUUA [JR_SSTryptoA_Sub012]
label 0
4) UACGCCACAGACGUGGAGUACCUUGGGUCGAAGGAUAUCAGCAUUGUGAGAAGGUCGCCGAUUCUAAGUGAUGUUUAGAUCAGGG [theeternabot_sameState_KL_FMN_A_2]
label 0
5) ACCUAGUAGACAGGAUAUCACGAUGACAGUGAUGUUGUCAUCAUCGAUUUGAGGAAACUCAGAUCGUGAGAAGGGUCUAACGACU [FMN B SS t7a]
label 0
6) GCCGUAGAUUGAAGGAGCGGGCCGUAGUGAUGUUACGCCAAUUUAUCUUUUCUUGAUGUGGCCCAGGUAGGUCGCAAUCUACGGC
label 0
7) AAAAUAAACCAGUGAUGUUGGUGUCCAGAUACCAGCGGUAAAAUCCGCCCUUGGCAGCUGUGGACGUACAAAAUAAGUACGUCCU [MatMod 4 - Jieux - Same State - Theophylline A]
label 1
8) GCCGUACGCAUGGAUACCAGCCGACAUGAUAUUUAGCUGGUGUCGUAGUGAUGUUACGAAGGCCCUUGGCAGCCAUGCGUACGGC
label 0
9) AUUAUAUUGUGAAGGAGCGCGCAUAGUAGUGAUGUUACUAUGACAUAUCUUAUUUAAUUCUCGCAGGUAGGUCGCACAUUAUAUA [JR_Nu_ExcArginiB_Sub026]
label 0
10) CCAUUCUGUUACGAUACCAGUCUAAUAUAUUUGAUCAAUACCCUCGCCGAGUGAUGUUCGGACCCUUGGCAGCGUCUGGGACAGG [bbybmullin]
label 1

====

Tested on: K4 kissing-loop RNA reporter
MEASUREMENT_NOTES: apparent KD of K4 kissing-loop reporter; higher = weaker reporter binding
ASSAY_CONTEXT: Eterna round: R107; input ligand: none
Classification field: label 1 = apparent KD of K4 kissing-loop reporter at or over 200 nM; label 0 = apparent KD of K4 kissing-loop reporter under 200 nM.

1. GCUAUAGUGUUAGAUACCAGUAUCCUGCAAAGCCAUCAAAUGCAGUGAUGUUGCAUAAACUACCCUUGGCAGCUAAUUGGGCUCU [theeternabot_exclusion_KL_Theo_B_49]
label 1
2. GGGAGUAGUGCGGCCGCCACUGUGAAAGUAGAAGAAUAUAGUGAUGUUAUAUAGGAAUAAAAGAAUAGGACCGGGCAUUAGAUUU [SSTRyptB.V]
label 1
3. CCAUUCUGUUACGAUACCAGUCUAAUAUAUUUGAUCAAUACCCUCGCCGAGUGAUGUUCGGACCCUUGGCAGCGUCUGGGACAGG [bbybmullin]
label 1
4. UCACUCAUGUGAAGGAGCGUGAGAAGACAUGAGUGAUGUUCAUGUCUAGACCAGCGUCUCUCACAGGUAGGUCGCACAUGAAAGG [Arg B SS t10]
label 0

====

Tested on: K4 kissing-loop RNA reporter;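 also: bound reporter read as fluorescence of individual clusters on recovered sequencing chips by microscopy, with normalized cluster intensities fitted with a binding model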
MEASUREMENT_NOTES: apparent KD of K4 kissing-loop reporter; higher = weaker reporter binding
ASSAY_CONTEXT: Eterna round: R107; input ligand: tryptophan 2.4 mM
Classification field: satisfied = apparent KD of K4 kissing-loop reporter at or over 200 nM; not satisfied = apparent KD of K4 kissing-loop reporter under 200 nM.

1) AUAGCUGAUAGCAGUGAUGUUGCUUCAGAUACCAGACGAGAUCAUGUCCCUUGGCAGCUGACAUGGCAAGUGCUAGGUUAGAUGA [#11 K4 Theophylline A Exclusion]
not satisfied
2) CUUGAUCGAGGAAGGAGCGGGCCGUCAUUGAGCGCAGUGAUGUUGCGUUCGACUAGUCGAGCCCAGGUAGGUCGCCUGGAGUAAG [Lazalaa]
not satisfied
3) GGGAAGGACGGAGGAUAUGCACUGAGGAGGAGAAUAUAGUGAUGUUAUAUAAGAGGAAGGAGCUGAGUAGAAGGCCGAGGAAAGG [whbob_SS_FMNB__2th207]
not satisfied
4) AAAGUGUCAGCACGAGUGAUGUUCGACGAUACCAGCCUCGAUAGAGGCCCUUGGCAGCGUAAAAGUCAAGGGCUGGCACAUAAAA [#SwitchBubble 5 #K4Early]
satisfied
5) UGAUACCAGACGGCCGCCACUGCACCAGUCAAUGACUGAGUGUGGUAAUGCUCAGUGAUGUUGAGUAGGACCGGGUCUGGUAUCU [Mod of Eli's TrypBX 8 v2]
not satisfied
6) UUAUAUAUAUCAGAUACCAGUAUAAUGGAAACAAAUUAUGUUAUGAGUGAUGUUCAUGUAUGCCCUUGGCAGCUGGUAUGGGUUU [KL-XTheo-B20]
satisfied
7) AUUUAAUUAACUGAUACCAGACUUUAAGUAAUUAUUAAAACUAGUGAUGUUAGUUUAUCUGUCCCUUGGCAGCAGUUUCUACUUA [JR_Nu_ExcTheophyB_Sub020]
not satisfied
8) AACACUCAGAGAGUGAUGUUCUCUAAUAAACGAGGACCGGUACGGCCGCCACUCGAAUAAGAGUGAGUCCUACGAAAAGUAGGAC [Omei inspired 5 #OpenEnded]
satisfied
9) UAUUAAUUGUCAGGAUAUCGUAAACGAGUGAUGUUCGUAUAUCGACGAUAGUCGAUUCUAUCUAAACGAGAAGGGACAUUAUUUA [JR_SSFMNB_Sub008]
satisfied
10) GUCGGCCGCGCGCAAGCGCGGCCGGCCGAUACCAGCGCGCCGGCGCGCCCUUGGCAGCGGCGCCGAGUGAUGUUCGGCCUGACGU [#2 Same State - Theophylline A Attempt #7 (HarryS)]
satisfied

====

Entries and their measured apparent KD of MS2 coat protein follow.
System: MS2 coat protein
MEASUREMENT_NOTES: apparent KD of MS2 coat protein, switch ON state; designed switch direction (-1 OFF switch, 1 ON switch): -1; higher = weaker reporter binding
ASSAY_CONTEXT: FMN input: 0 or 200 uM; Eterna round: R93 (includes R88 designs)
RECORDED_METRIC: apparent KD of MS2 coat protein

1. AGGAAACAUGAGGAUCACCCAUGUAAGGAUAUGAACGAAAUAAAAUAAAAAUAAAAGUUCAGAAGGUACAAAAA [Mat - Exclusion 1 - Eli mod - D8]
31.8 nM
2. AAGAACUCAGGAUAUACUAAAGAAAUGAAAAGAAAGAAAGAACAUGAGGAUCACCCAUGUAGAAGGGAGAAGAA [Qareh Khawoserre]
86.4 nM
3. AAAAGGUGAGGAUAUAUGAAAAAAAAAAAAAAAAAAAAAAAAUAGAAGGCACAUGAGGAUCACCCAUGUAAAAA [LROPPY Exclusion 4 - v04_ on a whim]
36.9 nM
4. CAGUACUGAGGAUAUACAUGAGGAUCACCCAUGUGGUCCAGCUAGGAAACUAGCACGUGUAGAAGGCAGUACUG [Ex3: 840]
29.5 nM
5. AACUGACAUGAGGAUCACCCAUGUCAGGAUAUGAUAUGUAAAAAAAUAAAAAUACUUAUCAGAAGGGACAUGGG [Design 39: Sub-opt A]
18.2 nM
6. AAAGGACGAGGAUAUACAUGAGGAUCACCCAUGUAAAAAACGUAAUAAAAUAACUUAUGUAGAAGGCGUCCAAA [Mat - Exclusion 3 - Eli mod - D98]
26.3 nM
7. GGAACACAUGAGGAUCACCCAUGUCAGGAUAUGUAGAUAAAAAGAAAAUAAAAUAAAAGCAGAAGGGACAAAAG [May 4]
60.2 nM
8. CUCAAGUAAGGAUAUCCAAGAAAAGAAGAGAAAGAAAAGAAGGAGAAGGUACAUGAGGAUCACCCAUGUAAGAA [EteRNA is fun!]
28.7 nM
9. AUGGUACAUGAGGAUCACCCAUGUCAGGAUAUCGGCUGUGACAUGAAAAAAAUGUUAGUGAGAAGGGACUGUAA [EX1 Malc#18 Mod 4 - Jieux - Exclusion 1]
85.4 nM
10. AGAAAACAUGAGGAUCACCCAUGUCAGGAUAUGAAAAAGAAAAGAAAAGAAAGAAGAAUCAGAAGGGACAAGAA [Senedj]
38.2 nM
11. AAAAAGCGAGGAUAUACAUGAGGAUCACCCAUGUAAAAGGUCGCGGGAGGGAGGGAAGGUAGAAGGCGCAAAAA [Excls3-VI]
15.4 nM
12. AAGAAGGGAGGAUAUACAAAAUAAAAGAAAAGAAAGAAAGAACAUGAGGAUCACCCAUGUAGAAGGUCCAAGAA [Imyremeshaw]
48.1 nM
13. AAACUACUAGGAUAUACAACGGUGUCCUAACUACUAAGAAGACAUGAGGAUCACCCAUGUAGAAGGAGUAGUGA [Sosogeen]
50.3 nM
14. AAGAAACAUGAGGAUCACCCAUGUGAGGAUAUUCAAGAAAGAAAGAAAGAAAGAAGAAGAAGAAGGCACAAAGG [Lucius Seius Strabo]
29 nM
15. AAAAAGGGAGGAUAUACAUGAGGAUCACCCAUGUAUCAGACGAAAAAGAGUCUGAAAAGUAGAAGGCCCAAAAA [65%, Moding Exclusion3-cac2, 6]
15.5 nM

Ref: the supplement of paper PMC9170038
